# Tested on: SF-295 CNS
# assay_notes: NCI-60 one-dose screen, 48 h (100 = growth as untreated, 0 = no growth, -100 = all killed)
# condition_label: 10 µM unless noted
Compounds without any hit were thinned out: in the full panel of roughly 83,000, 20% have a hit.

input_smiles: COc1ccc(-c2cc(-c3cn(-c4cccc(Cl)c4)nc3-c3ccc(OC)cc3)on2)cc1
endpoint_unit: %
growth: 108

input_smiles: C=CN(C(=O)N1CCN(c2cc3c(cc2F)c(=O)c(C(=O)O)cn3C2CC2)CC1)c1nc(-c2ccc(Cl)cc2)cs1
endpoint_unit: %
growth: 58.6

input_smiles: Cc1cc(NCCCNc2ccnc3cc(Cl)ccc23)nc(Nc2ccc(C(=O)N3CCCCC3)cc2)n1
endpoint_unit: %
growth: -34

input_smiles: CNC(=O)Nc1ccc(-c2ccc3ncnc(Nc4cccc(Cl)c4)c3c2)cc1
endpoint_unit: %
growth: 59.9

input_smiles: COc1cccc(CNc2c3ccccc3nc3ccccc23)c1OC
endpoint_unit: %
growth: 33

input_smiles: Fc1ccc(/C=C/[C@@H]2C[C@@H](F)CCO2)cc1
endpoint_unit: %
growth: 94.8

input_smiles: O=C(NCCN1CCOCC1)OCc1ccc2c(Cl)cc(Cl)c(O)c2n1
endpoint_unit: %
growth: 49.2

input_smiles: O=C(NNc1nc2cc(F)ccc2n2c(CN3CCOCC3)ccc12)c1ccccc1
endpoint_unit: %
growth: 0.468

input_smiles: O=C(Nc1cccnc1Nc1ccccc1)c1cn(Cc2cccc(Oc3ccccc3)c2)nn1
endpoint_unit: %
growth: 52.3
